molecular target: HLA-B*44:02; assay: IEDB peptide-MHC binding, purified MHC/competitive/radioactivity; filed as Kd, often an IC50 or EC50 that approximates it; bounds were set here for any values at or beyond the usual limits of such assays; details: source organism: Dengue virus 1 Brazil/97-11/1997
Items are presented alongside their recorded pKd.
// pKd is dimensionless: -log10 of concentration (M)

[
  {
    "seq-string": "MEVQLIRQM",
    "pKd": 7.76
  }
]

# ---- query sequence ----
[ask] Return reported pKd; argument: `GEKALKLSW`
[reply] 7.40

* * *

target: HLA-B*27:05; assay: IEDB peptide-MHC binding, purified MHC/direct/fluorescence; filed as Kd, often an IC50 or EC50 that approximates it; bounds were set here for any values at or beyond the usual limits of such assays; settings: source organism: Campylobacter jejuni RM1221
property-name: Kd

[ask] Return reported Kd; argument: `KSNEKNMDF`
[reply] ≥ 20 µM

* * *

biological target: HLA-B*35:01; experiment: IEDB peptide-MHC binding, purified MHC/competitive/radioactivity; filed as Kd, often an IC50 or EC50 that approximates it; bounds were set here for any values at or beyond the usual limits of such assays; conditions: source organism: Dengue virus 1 Brazil/97-11/1997
property-name: pKd
// pKd is dimensionless: -log10 of concentration (M)

[
  {
    "seq-string": "LPDTIETLML",
    "observed": 6.24
  }
]

# ---- query sequence ----
[ask] Return reported pKd; argument: `FPLCLSTTSQ`
[reply] 6.29

* * *

target: HLA-A*31:01; experiment: IEDB peptide-MHC binding, purified MHC/direct/fluorescence; filed as Kd, often an IC50 or EC50 that approximates it; bounds were set here for any values at or beyond the usual limits of such assays; conditions: source organism: Giardia lamblia ATCC 50803
property-name: Kd

[
  {
    "seq-string": "RTRFFCIPK",
    "experimental-system": "HLA-A*31:01",
    "Kd": "0.0182 µM"
  }
]

[ask] Return reported Kd; argument: `AEFWDVFLS`
[reply] ≥ 20 µM

[ask] And the next one, `ITASKDLCF` ?
[reply] ≥ 20 µM

[ask] And the next one, `IRNLVKRYK` ?
[reply] ≥ 20 µM

[ask] And the next one, `RPALVVDTP` ?
[reply] ≥ 20 µM

[ask] And the next one, `AAFLDDNAF` ?
[reply] ≥ 20 µM

* * *

molecular target: HLA-B*35:01; test: IEDB peptide-MHC binding, purified MHC/competitive/radioactivity; filed as Kd, often an IC50 or EC50 that approximates it; bounds were set here for any values at or beyond the usual limits of such assays; details: source organism: Mammarenavirus lassaense
property-name: Kd (nM)
A number alone suffices; assume nM.

[ask] Return reported Kd; argument: `IPFNVVTAM`
[reply] 5.25

* * *

target: HLA-A*11:01; test: IEDB peptide-MHC binding, purified MHC/direct/fluorescence; filed as Kd, often an IC50 or EC50 that approximates it; bounds were set here for any values at or beyond the usual limits of such assays; details: source organism: Pseudomonas aeruginosa
pKd: −log10 of the molar value.
Items are presented alongside their recorded pKd.

Here are 2 sequences together with their reported answers.
[
  {
    "seq-string": "TYYPQVVLG",
    "pKd": 5.29
  },
  {
    "seq-string": "GEDDDMLPW",
    "pKd": "≤ 4.70"
  }
]

# ---- query sequence ----
[ask] Return reported pKd; argument: `SEYKAAGYL`
[reply] ≤ 4.70
